- ASSAY METHOD TEXT: NCI Yeast Anticancer Drug Screen. Data for the sgs1 mgt1 strain (AID 161);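 also: 0% = growth of cultures given vehicle only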
- EXPERIMENTAL CONDITIONS: S. cerevisiae sgs1 mgt1 strain, at 50.0 µM (retest, dose inferred, filed as 5.0), hits give high values
Compounds without any hit were thinned out: in the full panel of roughly 79,000, 15% have a hit.
The following compounds are shown together with reported growth inhibition values.
Report as a plain number; the unit % is understood.

Ask: So what's the measured growth inhibition for this one? `C=CCNC(=S)N/N=C/c1nccc(-c2ccccc2)c1C`
Result: 96

Ask: So what's the measured growth inhibition for this one? `C/C(=N\N(C)C(=S)Nc1ccccc1)c1ccccn1`
Result: 22

Ask: So what's the measured growth inhibition for this one? `COc1cccc(CCCNC(=O)Cc2ccccc2CO)c1`
Result: 12

Next:
Ask: So what's the measured growth inhibition for this one? `O=Cc1cc2ccccc2cc1C=O`
Result: 96

Ask: So what's the measured growth inhibition for this one? `O=C(/C=C/c1ccccc1)c1ccc(NCc2nc3ccccc3[nH]2)cc1`
Result: 82

Ask: So what's the measured growth inhibition for this one? CCCCCCCCN(CCCCCCCC)CC(O)c1cc(-c2ccc(Cl)cc2)nc2c(Cl)cccc12 (stereo unspecified)
Result: 20

----------
The following compounds are shown together with reported growth inhibition values.
- ASSAY METHOD TEXT: NCI Yeast Anticancer Drug Screen. Data for the bub3 strain (AID 167)
- EXPERIMENTAL CONDITIONS: S. cerevisiae bub3 mutant strain, at 50.0 µM (retest, dose inferred, filed as 5.0), hits give high values
Compounds without any hit were thinned out: in the full panel of roughly 79,000, 15% have a hit.
Report as a plain number; the unit % is understood.

Ask: So what's the measured growth inhibition for this one? `O=C(O)c1ccccc1-c1c2ccc(=O)c(Br)c-2oc2c(Br)c(O)ccc12`
Result: 96

Ask: So what's the measured growth inhibition for this one? COc1ccc(C2(O)c3ccccc3C(=O)C2c2ccccn2)cc1 (stereo unspecified)
Result: 7

Ask: So what's the measured growth inhibition for this one? `FC1(F)C2=C(SC3=C(S2)C(F)(F)C3(F)F)C1(F)F`
Result: 95

Ask: So what's the measured growth inhibition for this one? `C/C(=N/NC(=O)Nc1ccc(N=Nc2ccccc2)cc1)c1cccnc1`
Result: 4

Ask: So what's the measured growth inhibition for this one? `CNC(=O)OCc1c(-c2ccccc2)c(-c2ccccc2)n(-c2ccc(OC)cc2)c1COC(=O)NC`
Result: 99

Attention now turns to another entry.
Ask: So what's the measured growth inhibition for this one? `C=CCOC(=O)OCCCO`
Result: -3

----------
- ASSAY METHOD TEXT: NCI Yeast Anticancer Drug Screen. Data for the sgs1 mgt1 strain (AID 161);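 also: 0% = growth of cultures given vehicle only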
- EXPERIMENTAL CONDITIONS: S. cerevisiae sgs1 mgt1 strain, at 5.0 µM (retest, dose inferred, filed as 0.5)
This is part of a sample that, as a whole, favours compounds with a hit. Of some 79,000 tested, about 15% had one in any assay. Activity calls are given as the source filed them. Rule as the data show it: active = growth inhibition above about 70%; inactive = the rest.
Write down one outcome, taken from active, inactive

Field: example entries. Status: answers known.
Ask: What outcome does the record of this test show for COc1ccc(C2(O)c3ccccc3C(=O)C2c2ccccn2)cc1 (configuration not stated) ?
Result: active

Ask: What outcome does the record of this test show for `Cc1cc(O)c(O)cc1C/C=C/c1ccccc1` ?
Result: inactive

Ask: What outcome does the record of this test show for Cc1ccc2c(c1)C1(SCC(=O)N1c1ccc(Cl)cc1)C(=O)N2 (configuration not stated) ?
Result: inactive

Ask: What outcome does the record of this test show for `CCn1c(=O)cc2n(C)c3ccccc3n2c1=O` ?
Result: inactive

Ask: What outcome does the record of this test show for `S=C(Nc1ccccn1)c1ccccn1` ?
Result: inactive

Ask: What outcome does the record of this test show for `CCOC(=O)C(C)(C)C` ?
Result: inactive

Ask: What outcome does the record of this test show for `CC(=O)NS(=O)(=O)c1ccc(N=Cc2cc(Cl)cc(Cl)c2O)cc1` ?
Result: inactive

Ask: What outcome does the record of this test show for `COc1cc(CNc2nc3ccccc3nc2-c2cccs2)cc(OC)c1OC` ?
Result: inactive

Next:
Ask: What outcome does the record of this test show for `CSC(=S)NN=C(c1ccccc1)c1ccccc1` ?
Result: inactive

Ask: What outcome does the record of this test show for `COc1ccc(-c2ccccc2)cc1SCCC(=O)O` ?
Result: inactive

Ask: What outcome does the record of this test show for COC(=O)C1(C)CC2C(C)(CCC3(C)C4=CC=C5C(=CC(=O)C(O)=C5C)C4(C)CCC23C)CC1O (configuration not stated) ?
Result: inactive

Ask: What outcome does the record of this test show for `N#CC(C#N)=C(C1CC1)C1CC1` ?
Result: inactive
